Items are presented alongside their recorded cell viability.
tested on: NOMO1; test: cell viability relative to DMSO control; higher = less cytotoxic; conditions: HPLM + 10% dialyzed FBS; 48 h; 46.1 µM
Give your result in % as a bare value.

Solved entries (count: 4):
Clc1cc(Cl)cc(CNc2ncncc2-c2ccc3c(c2)OCO3)c1: 16.1
CC(=O)O[C@@]1(CC[C@H]2[C@@H]3\C=C(C)/C4=C/C(=O)CC[C@]4(C)[C@H]3CC[C@]12C)C(C)=O: 119
CC(=O)N1CCN(c2ccc(OCc3nn(C)c(C)c3-c3cccc4c(CCCOc5cccc6ccccc56)c(C(=O)O)n(Cc5cccnc5)c34)cc2)CC1: 22.7
OC[C@H]1O[C@H]([C@@H](F)[C@@H]1O)N2\C=C/C(=O)NC2=O: 90.2

Query: Can you look up the measured cell viability of `CC(=O)N1CCN(c2ccc(OC[C@H]3CO[C@](Cn4ccnc4)(c4ccc(Cl)cc4Cl)O3)cc2)CC1` for me?
Result: 80.4

* * *

system: P12-Ichikawa; test: cell viability relative to DMSO control; higher = less cytotoxic; settings: RPMI 5 mM glucose + 10% dialyzed FBS; 48 h; 46.1 µM
Items are presented alongside their recorded cell viability.
Give your result in % as a bare value.

CC1(C)C(=O)N(CCN2CCC(C(=O)c3ccc(F)cc3)CC2)c2ccccc21: 93.5

Switching to the query record.
Query: Can you look up the measured cell viability of `C\C1=C\N([C@H]2C[C@H](N=[N+]=[N-])[C@@H](CO)O2)C(=O)NC1=O` for me?
Result: 62

* * *

tested on: SEM cells; test: cell viability relative to DMSO control; higher = less cytotoxic; details: RPMI 5 mM glucose + 10% dialyzed FBS; 48 h; 15.4 µM
Items are presented alongside their recorded cell viability.
Give your result in % as a bare value.

CCN(CC)CCCCNc1nc2cc(Cl)c(Cl)cc2nc1-c1ccc(-c2cccs2)s1: 131
O=C(Nc1cccc(Nc2ncc(Br)c(NCCc3cnc[nH]3)n2)c1)N1CCCC1: 3.89
C[C@@]12O[C@@H](C[C@]1(O)CO)n1c3ccccc3c3c4c(c5c6ccccc6n2c5c31)CNC4=O: 6.86
CCOC(=O)N1CCN(/[N+]([O-])=N/Oc2ccc([N+](=O)[O-])cc2[N+](=O)[O-])CC1: 16.7
C[C@H]1C[C@H]2[C@@H]3CCC4=CC(=O)C=C[C@]4(C)[C@@]3(F)[C@@H](O)C[C@]2(C)[C@@]1(O)C(=O)CO: 23.9

Query: Can you look up the measured cell viability of `Cc1cccc(C)c1OCC(=O)N[C@@H](Cc1ccccc1)[C@@H](O)C[C@H](Cc1ccccc1)NC(=O)[C@H](C(C)C)N1CCCNC1=O` for me?
Result: 69.1

Query: Can you look up the measured cell viability of `CN(C)C(=O)c1ccc([S+](=O)([O-])c2ccc(NC(=O)[C@@](C)(O)C(F)(F)F)c(Cl)c2)cc1` for me?
Result: 72.8

* * *

system: SEM cells; test: cell viability relative to DMSO control; higher = less cytotoxic; details: RPMI 5 mM glucose + 10% FBS; 48 h; 1.71 µM
property-label: cell viability

Solved entries (count: 3):
Cc1cccc(-c2nn(C(=S)Nc3ccccc3)cc2-c2ccnc3ccccc23)n1: 126%
CC1(C)OC2CC3C4CC(F)C/5=C/C(=O)/C=C\C5(C)C4C(O)CC3(C)[C@@]2(O1)C(=O)CO (some centres undefined): 56%
CC(C)(C)C(=O)OCOP(=O)(COCCn1cnc2c(N)ncnc21)OCOC(=O)C(C)(C)C: 26.5%

Switching to the query record.
Query: Can you look up the measured cell viability of `CCC[C@H](N[C@@H](C)C(=O)N1[C@H](C(=O)O)C[C@@H]2CCCC[C@@H]21)C(=O)OCC` for me?
Result: 110%

* * *

system: SEM cells; assay: cell viability relative to DMSO control; higher = less cytotoxic; settings: HPLM + 10% dialyzed FBS; 48 h; 0.0632 µM
property-label: cell viability (%)
Give your result in % as a bare value.

Solved entries (count: 2):
C[C@H]1C[C@H]2[C@@H]3CCC4=CC(=O)C=C[C@]4(C)[C@@]3(F)[C@@H](O)C[C@]2(C)[C@@]1(O)C(=O)CO: 99.5
N=C(N)NC(=O)c1nc(Cl)c(N)nc1N: 114

Query: Can you look up the measured cell viability of C1CCC(C(CC2CCCCN2)C2CCCCC2)CC1 (stereo not given) for me?
Result: 104

Query: Can you look up the measured cell viability of `O=C1\C=C/C[C@@H]2[C@H]3CCCN4CCC[C@@H](CN12)[C@@H]34` for me?
Result: 99.6

Query: Can you look up the measured cell viability of `CC(=O)Nc1ccc([C@H](C)C(=O)Nc2ncc(C(C)C)s2)cc1` for me?
Result: 104

Query: Can you look up the measured cell viability of `Oc1ccc(C2CCN(c3ccnc4ccccc34)CC2)cc1O` for me?
Result: 118

Query: Can you look up the measured cell viability of `O=C(CO)N1CCC(c2n[nH]c(-c3ccc(Cl)cc3)c2-c2ccncn2)CC1` for me?
Result: 110

Query: Can you look up the measured cell viability of `C\C1=C\N([C@H]2C[C@H](N=[N+]=[N-])[C@@H](CO)O2)C(=O)NC1=O` for me?
Result: 80.8

Query: Can you look up the measured cell viability of COc1cc(O)c2c(c1)C1OC1C[C@H](O)[C@H](O)C(=O)/C=C\C[C@H](C)OC2=O (stereo not given in full) for me?
Result: 125

Query: Can you look up the measured cell viability of `N[S+](=O)([O-])c1cc(Cl)c(Cl)c([S+](N)(=O)[O-])c1` for me?
Result: 101

Query: Can you look up the measured cell viability of `CCn1c(-c2nonc2N)nc2cncc(CNC3CCNCC3)c21` for me?
Result: 137

* * *

tested on: SEM cells; test: cell viability relative to DMSO control; higher = less cytotoxic; details: HPLM + 10% dialyzed FBS; 48 h; 0.000781 µM
cell viability under 90% gets true (1), anything at or over 90% gets false (0).

CC(C)C[C@H](NC(=O)[C@@H](NC(=O)c1cccc(-c2ccccc2)n1)[C@@H](C)O)B(O)O: false (0)
C[N+]1(C)[C@@H]2C[C@@H](OC(=O)[C@H](CO)c3ccccc3)C[C@H]1[C@@H]1O[C@@H]12.[Br-]: true (1)
O=C1C[C@@H](c2ccc(O)cc2)Oc2cc(O)cc(O)c21: false (0)
C[S+](=O)([O-])N(Cc1ccco1)CC(O)Cn1c2ccccc2c2ccccc21 (stereo not drawn): false (0)
CCc1cccc(CC)c1NC(=O)N1Cc2[nH]nc(NC(=O)c3ccc(N4CCN(C)CC4)cc3)c2C1: false (0)

Query: Is cell viability of `C\C1=C\N([C@H]2C[C@H](N=[N+]=[N-])[C@@H](CO)O2)C(=O)NC1=O` strictly below 90%?
Result: true (1)

Query: Is cell viability of CCOc1cc(N)c(Cl)cc1C(=O)NCC1CN(Cc2ccc(F)cc2)CCO1 (stereo not drawn) strictly below 90%?
Result: true (1)

* * *

Items are presented alongside their recorded cell viability.
test system: NOMO1; test: cell viability relative to DMSO control; higher = less cytotoxic; conditions: HPLM + 10% dialyzed FBS; 48 h; 0.19 µM

Solved entries (count: 5):
C[C@@H]1COCCN1C\2=C\C(=O)N\3CC[C@H](N(CC4=CN=CC(=C4)Cl)C3=N2)C(F)(F)F: 130%
CC(C)(C)c1cc(C=C(C#N)C#N)cc(Br)c1O: 122%
COC[C@@H](NC(C)=O)C(=O)NCc1ccccc1: 118%
CC(=O)NC(CS)C(=O)O (stereo unspecified): 81.6%
C[N+]1(C)[C@@H]2C[C@@H](OC(=O)[C@H](CO)c3ccccc3)C[C@H]1[C@@H]1O[C@@H]12.[Br-]: 99.4%

Switching to the query record.
Query: Can you look up the measured cell viability of `CC1(C)C(=O)N(CCN2CCC(C(=O)c3ccc(F)cc3)CC2)c2ccccc21` for me?
Result: 138%

* * *

test system: SEM cells; assay: cell viability relative to DMSO control; higher = less cytotoxic; details: HPLM + 10% dialyzed FBS; 48 h; 46.1 µM
Items are presented alongside their recorded cell viability.
Give your result in % as a bare value.

Solved entries (count: 4):
C[C@@H]1COCCN1C\2=C\C(=O)N\3CC[C@H](N(CC4=CN=CC(=C4)Cl)C3=N2)C(F)(F)F: 24.8
OC[C@H]1O[C@H]([C@@H](F)[C@@H]1O)N2\C=C/C(=O)NC2=O: 106
[NH2][Pt]([NH2])([Cl])[Cl]: 62.1
O=C(CO)N1CCC(c2n[nH]c(-c3ccc(Cl)cc3)c2-c2ccncn2)CC1: 31

Switching to the query record.
Query: Param readout= cell viability; system= SEM cells; entry= `O=C1C[C@@H](c2ccc(O)cc2)Oc2cc(O)cc(O)c21` ; returns value.
Result: 106
